// data source = PubChem BioAssay (NCI)

Test system: CCRF-CEM leukemia
Assay: NCI-60 one-dose screen, 48 h (100 = growth as untreated, 0 = no growth, -100 = all killed)
Conditions: 10 µM unless noted
Compounds without any hit were thinned out: in the full panel of roughly 83,000, 20% have a hit. Calls of active or inactive are those of the source. How the source made its calls: active means growth percent below 10; inactive means the rest.
Assay Endpoint: growth

Using the record for Nc1ncnc2c1C(c1ccc(Br)cc1)c1sc3c(F)cccc3c1O2 (stereo not given) , state its measured growth. 97.8% (inactive)

Using the record for CCOC(=O)C1=C(C)NC(=O)NC1c1c(Cl)n(CCCl)c2ccccc12 (stereo not given) , state its measured growth. -54.5% (active)

Using the record for CS(=O)(=O)Nc1cc(-c2ccc3ncnc(Nc4ccc5c(cnn5Cc5cccc(F)c5)c4)c3c2)cnc1Cl , state its measured growth. 12.7% (inactive)

Using the record for Cc1ccc2c(n1)C(=O)C(Br)=C(C1CCCC1)C2=O , state its measured growth. 26.2% (inactive)

Using the record for O=C(Nc1cccc(Cl)c1)Nc1cccc(Cn2c(=O)[nH]c3ccc(Oc4ncccn4)cc3c2=O)c1 , state its measured growth. 32.6% (inactive)

###

Tested on: HOP-62 NSCLC
Experiment: NCI-60 one-dose screen, 48 h (100 = growth as untreated, 0 = no growth, -100 = all killed)
Conditions: 10 µM unless noted
About 83,000 compounds went through this panel and 20% of them were active in at least one assay; those are over-represented in the sample as a whole.
Just a reminder that ties go to 0.0: only growth strictly below 80% counts as 1.0.

Quick check: growth of COc1cc(NS(=O)(=O)c2ccc(-c3cnc(C4CC4)o3)cc2)ccc1F under 80%? 1.0

Quick check: growth of N#CC1=C(N)Oc2c(sc3c(Br)cccc23)C1c1ccc(Cl)cc1 (stereo not given) under 80%? 1.0

Quick check: growth of CN(C)CCNC(=O)c1cc2c3cc(Cl)ccc3[nH]c2c2ncccc12 under 80%? 1.0

Quick check: growth of O=C1/C(=C/c2ccc([N+](=O)[O-])cc2)COc2ccc(O)cc21 under 80%? 0.0

Quick check: growth of Nc1n[nH]c2ccc([C@H]3[C@@H]4C5CCC(C5)[C@@H]4c4c(ccc5[nH]ncc45)N3S(=O)(=O)C3CC3)cc12 (stereo not given in full) under 80%? 1.0

Quick check: growth of COc1cccc(CNc2ccc3ncnc(Nc4ccc(F)c(Cl)c4)c3c2)c1 under 80%? 0.0

Quick check: growth of Nc1cc(C(=O)NC[C@H]2CN(c3ccc(N4CCC(C(=O)O)CC4)cc3)C(=O)O2)ccc1Cl under 80%? 0.0

Quick check: growth of O=C1Nc2ccc(C(=O)O)cc2/C1=N/c1nnc(Sc2ccccc2)s1 under 80%? 0.0

Quick check: growth of CCOC(=O)C1=C(c2ccccc2)N=C2SC=C(c3ccc(Cl)cc3)N2C1c1ccc(Cl)cc1 (stereo not given) under 80%? 0.0

Quick check: growth of COc1ccc(OC)c(Nc2nnc(-c3ccc(O)c(OC)c3)o2)c1 under 80%? 1.0

###

Test system: OVCAR-3 ovarian
Assay: NCI-60 one-dose screen, 48 h
Conditions: 10 µM unless noted
The panel holds about 83,000 compounds, 20% with a hit somewhere; the sample as a whole holds those more often. Active and inactive are the calls of the source. How the source made its calls: active means growth percent below 10; inactive means the rest.
Your response should consist of one outcome taken from class 1 (active), class 0 (inactive)

Could you please tell me the result logged for COC1=CC(c2ccc[nH]2)=N/C1=C\c1[nH]c(C)c(CC(=O)NCc2ccccc2)c1C in this assay? class 0

Could you please tell me the result logged for CC(=O)Oc1ccc(N2C(=O)C(Cl)=C(Nc3cccc(C(F)(F)F)c3)C2=O)cc1 in this assay? class 0

Could you please tell me the result logged for CCN(C)S(=O)(=O)Nc1cccc(Nc2ncnc3cc(NC(=O)CCl)ccc23)c1Cl in this assay? class 1

Could you please tell me the result logged for N#CC1=C(N)Oc2c(c(=O)[nH]c3ccc(Cl)cc23)C12C(=O)c1ccccc1C2=O in this assay? class 0

Could you please tell me the result logged for C[PH+](c1nc2ccccc2nc1[PH+](C)C(C)(C)C)C(C)(C)C.C[PH+](c1nc2ccccc2nc1[PH+](C)C(C)(C)C)C(C)(C)C.[Au+].[Cl-] (stereo unspecified) in this assay? class 1

Could you please tell me the result logged for COc1cc(-c2nccc3[nH]c(-c4ccc5cc[nH]c5c4)nc23)cc(OC)c1OC in this assay? class 1

Could you please tell me the result logged for CCN(CC)CCCCCNc1cc(OC(=O)c2ccc(Cl)cc2)cc2cccnc12 in this assay? class 0

Could you please tell me the result logged for CCOC(=O)Cc1cnc(N/N=C(\C)c2cc3ccccc3o2)s1 in this assay? class 0

Could you please tell me the result logged for COc1ccccc1N1CCCCC1 in this assay? class 0

Could you please tell me the result logged for CCCNc1nc2ccccc2c2c1S(=O)(=O)c1ccc(Cl)cc1C2=O in this assay? class 1

Could you please tell me the result logged for Cc1c2cnccc2c(C)c2c1c1cc(C#N)ccc1n2C in this assay? class 1

###

Test system: MCF7 breast
Assay: NCI-60 one-dose screen, 48 h (100 = growth as untreated, 0 = no growth, -100 = all killed)
Conditions: 10 µM unless noted
Compounds without any hit were thinned out: in the full panel of roughly 83,000, 20% have a hit.
Just a reminder that ties go to Not satisfied: only growth strictly below 90% counts as Satisfied.

Quick check: growth of CN(C)CC1CCC(CN(C)C)C1=O (stereo not given) under 90%? Not satisfied

Quick check: growth of O=C(/C=C/c1cccs1)Nc1ncc(Cc2ccccc2F)s1 under 90%? Satisfied

Quick check: growth of C=C(C)[C@@H]1CC[C@]2(C(=O)N3CCOCC3)CC[C@]3(C)[C@H](CC[C@@H]4[C@@]5(C)C/C(=C/c6ccncc6)C(=O)C(C)(C)[C@@H]5CC[C@]43C)[C@@H]12 under 90%? Satisfied

###

Tested on: NCI-H460 lung
Assay: NCI-60 one-dose screen, 48 h
Details: 10 µM unless noted
Compounds without any hit were thinned out: in the full panel of roughly 83,000, 20% have a hit. Calls of active or inactive are those of the source. Rule for the calls: active = growth percent below 10; inactive = the rest.
Your response should consist of one outcome taken from Y (active), N (inactive)

Could you please tell me the result logged for O=[N+]([O-])c1cccc(-c2nc3cc4nc5ccccc5[nH]c4cc3n2)c1 in this assay? N

Could you please tell me the result logged for CCOC(=O)C/C(=N\Nc1cc(=O)[nH]c2ccc(Br)cc12)C(=O)OCC in this assay? N

Could you please tell me the result logged for CCOC(=O)[C@@H]1CSC(CC)=C(C(=O)O)N1 in this assay? N

Could you please tell me the result logged for Clc1cc(Cl)c(Cl)c(-c2nnc(SCc3ccncc3Br)o2)c1 in this assay? N

Could you please tell me the result logged for CCCCCCCCCCCCCCCCCCOc1ccccc1CC(=O)OCC[N+](C)(C)C in this assay? N

Could you please tell me the result logged for O=C(N/N=C/c1c(Cl)cccc1Cl)c1cccnc1Nc1cccc(C(F)(F)F)c1 in this assay? N

Could you please tell me the result logged for CNC(=O)c1[nH]cc(-c2ccc(OC)cc2)c1-c1cc(OC)c2c(c1OC)OCO2 in this assay? N

Could you please tell me the result logged for Cc1ccc(C(=O)c2ccc(CC(=O)N/N=C/c3ccccc3O)n2C)cc1 in this assay? N

Could you please tell me the result logged for CN(C)c1ccc(-c2c(C#N)c(N)nn2C(=O)c2ccc(NC(=O)c3ccccn3)cc2)cc1 in this assay? N

Could you please tell me the result logged for COc1c(B(O)O)cccc1-c1cc(C)c2c(ccc3[nH]ncc32)n1 in this assay? N

Could you please tell me the result logged for O=C(O)c1cn(C2CC2)c2cc(N3CCN(Cc4ccc5ccccc5c4O)CC3)c(F)cc2c1=O in this assay? Y

Could you please tell me the result logged for c1ccc2cc(C[n+]3ccn(CCCCCCCCCCn4cc[n+](Cc5ccc6ccccc6c5)c4)c3)ccc2c1 in this assay? N

Could you please tell me the result logged for CCC(=O)Oc1ccc(-c2ccccc2)cc1Br in this assay? N

Could you please tell me the result logged for O=C(c1ccccc1)c1ccc(C2CCCCC2)cc1 in this assay? N

Could you please tell me the result logged for Cc1[nH]c(C(=O)Nc2ccccc2OC2CCNCC2)c(Cl)c1Cl in this assay? Y

Could you please tell me the result logged for Clc1cccc(Nc2ncnc3ccc(-c4cnc5[nH]ccc5c4)cc23)c1 in this assay? N

Could you please tell me the result logged for COc1ccc(C2=C(Nc3ccc(C(=O)Nc4ccccc4)cc3)C(=O)N(C)C2=O)cc1 in this assay? N

Could you please tell me the result logged for COc1ccc(\C=N/N=C(N)/C(N)=N\N=C/c2ccc(OC)cc2)cc1 in this assay? N

Could you please tell me the result logged for O=C(Nc1ccc(OS(=O)(=O)c2ccc(F)cc2)cc1)C1CCCCCC1 in this assay? N

Could you please tell me the result logged for O=c1[nH]c(Cc2nc3ccccc3s2)nc2cc(Br)ccc12 in this assay? N

Could you please tell me the result logged for CCC(C)N(CCNc1cc(OC)cc2cccnc12)CC(C)C (stereo unspecified) in this assay? N

Could you please tell me the result logged for Oc1ccc(Cl)cc1/C=N\NC(=S)N/N=C/c1cc(Cl)ccc1O in this assay? N

Could you please tell me the result logged for O=C(Nc1nc2cc(C(=O)N3CCN(C(c4ccccc4)c4ccccc4)CC3)ccc2o1)c1ccc(NC2CCCCC2)c([N+](=O)[O-])c1 in this assay? N

Could you please tell me the result logged for Cc1cccc(CNc2c3ccccc3nc3ccccc23)c1 in this assay? Y

Could you please tell me the result logged for Nc1nc2ccccc2c2c(=O)c3cccc(Cl)c3sc12 in this assay? N

Could you please tell me the result logged for Cc1ccc(Nn2c(SCC(=O)Nc3nc(-c4ccccc4)cs3)nc(C)c2C)cc1 in this assay? N

Could you please tell me the result logged for C[C@@H](CO)[C@@H]1CCC=C2CC[C@]3(C)[C@H](CC[C@@H]4[C@@]5(C)CCCNC(C)(C)[C@@H]5CC[C@]43C)[C@H]21 in this assay? Y

Could you please tell me the result logged for CN1CCN(C(=O)c2ccc(NC(=O)c3cc4c(nn3)NCCN4Cc3cc(Cl)ccc3Cl)cc2)CC1 in this assay? N

Could you please tell me the result logged for O=C(NCCCl)Nc1ncccc1OCc1ccccc1 in this assay? N

Could you please tell me the result logged for Cc1ccc2c(n1)C(=O)C(Br)=C(CC(C)C)C2=O in this assay? N

Could you please tell me the result logged for CC(C)(Sc1cc(C(C)(C)C)c(OC(=O)CCCC(=O)O)c(C(C)(C)C)c1)Sc1cc(C(C)(C)C)c(OC(=O)CCCC(=O)O)c(C(C)(C)C)c1 in this assay? Y

Could you please tell me the result logged for COc1ccc(OC)c(/C=N/Nc2ncnc3c2c(C)nn3C)c1 in this assay? N

Could you please tell me the result logged for C/C(=N\O)c1ccc(Cl)cc1 in this assay? N

Could you please tell me the result logged for O=C(Nc1cccc2ccccc12)NC1CC1 in this assay? N

Could you please tell me the result logged for O=C1c2c(c3c4ccccc4[nH]c3c3ccc4ccccc4c23)C(=O)N1CCN1CCNCC1 in this assay? Y

Could you please tell me the result logged for COCCn1cc(-c2csc(-c3cn(C)c4ccc(Br)cc34)n2)c2cccnc21 in this assay? N

Could you please tell me the result logged for Cc1ccc(NC(=O)Cn2cc(CN3CCN(c4ccnc5cc(Cl)ccc45)CC3)nn2)cc1 in this assay? N

Could you please tell me the result logged for Oc1c(I)cc(I)cc1CNCc1ccccn1 in this assay? N

Could you please tell me the result logged for Cc1ccccc1/C=C/C(=O)c1cccc(OCCCOc2cccc(C(=O)/C=C/c3ccccc3C)c2)c1 in this assay? N

Could you please tell me the result logged for Cc1cc(S(=O)(=O)/N=C(\N)n2nc(C)c(C)c2C)c(SCc2ccccc2)cc1Cl in this assay? N

Could you please tell me the result logged for COc1cc(-c2csc(NC(=O)c3ccc(N4CCOCC4)c(C(F)(F)F)c3)n2)cc(OC)c1OC in this assay? N
